pKi: −log10 of the molar value.
Compiled pKi measurements on Substance-P receptor (Homo sapiens) taken from the literature.
Reported Property: pKi

Molecule | Reported Measurement
COC[C@]1(N2CC(=O)NC2=O)CC[C@@](CO[C@H](C)c2cc(C(F)(F)F)cc(C(F)(F)F)c2)(c2ccccc2)NC1 | 9.96

a. CC(C)N(CCc1cc(C(F)(F)F)cc(C(F)(F)F)c1)C(=O)C(c1ccccc1)N1CCC(N2CCCCC2)CC1 (stereo not shown)
b. COC[C@]12CC[C@@](CO[C@H](C)c3cc(C(F)(F)F)cc(C(F)(F)F)c3)(c3ccccc3)N(CC(=O)N1)C2
-- ask Between item a and item b , which reported pKi is smaller? Identify your selection by its label.
-- reply a
(a: 8.17, b: 9.89)

###

Compiled Ki measurements on Substance-P receptor (Homo sapiens, UniProt P25103) taken from the literature.

Known Ki results, listed for orientation:
Compound Structure String | Measured On | Ki
Cc1nsc(-c2nnc3n2CCN(C(=O)c2cc(F)c(F)c(F)c2)C3)n1 | Substance-P receptor (Homo sapiens, UniProt P25103) | > 30 µM
C[C@@H]1c2nnc(-c3nc(C(F)F)ns3)n2CCN1C(=O)c1ccc(F)cc1 | Substance-P receptor (Homo sapiens, UniProt P25103) | > 30 µM

Field Ki (Substance-P receptor (Homo sapiens, UniProt P25103)), entry `Cc1ccc(-c2nnc3n2CCN(C(=O)c2ccc(F)c(F)c2F)[C@@H]3C)o1` : > 30 µM

###

Compiled Ki measurements on Substance-P receptor (Homo sapiens, UniProt P25103) taken from the literature.
Reported Property: Ki (µM)

Molecule | Reported Measurement
CC(C)N/C(=N\C(=O)c1ccccc1)N1CCN(C(C(=O)N(C)CCc2cc(C(F)(F)F)cc(C(F)(F)F)c2)c2ccccc2)CC1 (centres unmarked) | 0.00896

I. CN(CCc1cc(C(F)(F)F)cc(C(F)(F)F)c1)C(=O)C(c1ccccc1)N1CCC(N2CCN(CC(N)=O)CC2)CC1 (centres unmarked)
II. C[C@@H]1c2nnc(-c3csc(C(F)(F)F)n3)n2CCN1C(=O)c1cc(F)c(F)c(F)c1F
-- ask Between item I and item II , which reported Ki is smaller? Identify your selection by its label.
-- reply I
